Assay: Cytotoxicity against human HBF4 cells incubated for 48 hrs by SRB assay relative to control
Type: toxicity, cell-based
Set-up: concentration or dose not given beside the values
Conditions: hbf4, 48 h
measurement kind: Activity (%)

[
  {
    "molecule": "CC1(C)CC(=O)C2=C(C1)N(c1ccc(Cl)cc1)C(N)=C(C#N)C21C(=O)Nc2ccccc21 (stereo not given)",
    "observed result": 30
  },
  {
    "molecule": "CC1(C)CC(=O)C2=C(C1)N(c1ccccc1)C(N)=C(C#N)C21C(=O)Nc2ccccc21 (stereo not given)",
    "observed result": 23
  },
  {
    "molecule": "CCOC(=O)C1=C(N)N(c2ccccc2)C2=C(C(=O)CC(C)(C)C2)C12C(=O)Nc1ccccc12 (stereo not given)",
    "observed result": 24
  },
  {
    "molecule": "CCOC(=O)C1=C2N=C(N)C3=C(SC4CCCCC34)N2C2=C(C(=O)CC(C)(C)C2)C12C(=O)Nc1ccccc12 (stereo not given)",
    "observed result": 17
  },
  {
    "molecule": "CCOC(=O)C1=C2N=C(N)c3ccccc3N2C2=C(C(=O)CC(C)(C)C2)C12C(=O)Nc1ccccc12 (stereo not given)",
    "observed result": 30
  }
]

====

Tested on: MCF7
Experiment: Antiproliferative activity against human MCF7 cells measured after 48 hrs by MTT assay
Assay type: functional, cell-based
Conditions: MCF7, 48 h
Reported IC50 is given for each of the following compounds.

[
  {
    "compound": "CC(=O)O[C@H]1CC[C@]2(C)C3CC[C@@]4(C)C(CC[C@H]4[C@H](C)CCCC(C)C)C3C[C@@]3(N=C4C=CC=CN4/C3=N\\c3ccccc3)C2C1 (some centres undefined)",
    "tested system": "MCF7",
    "IC50": "4.31 µM"
  },
  {
    "compound": "CC(C)CCC[C@@H](C)[C@@H]1CCC2C3C[C@@]4(N=C5C=CC=CN5/C4=N\\c4ccccc4)C4CCCC[C@]4(C)C3CC[C@@]21C (some centres undefined)",
    "tested system": "MCF7",
    "IC50": "4.8 µM"
  },
  {
    "compound": "CC(C)CCC[C@@H](C)[C@@H]1CCC2C3C[C@@]4(N=C5C=CC(Cl)=CN5/C4=N\\Cc4ccccc4)C4C[C@@H](Cl)CC[C@]4(C)C3CC[C@@]21C (some centres undefined)",
    "tested system": "MCF7",
    "IC50": "3.24 µM"
  },
  {
    "compound": "CC(C)CCC[C@@H](C)[C@@H]1CCC2C3C[C@@]4(N=C5C=CC=CN5/C4=N\\c4ccccc4)C4C[C@@H](Cl)CC[C@]4(C)C3CC[C@@]21C (some centres undefined)",
    "tested system": "MCF7",
    "IC50": "3.93 µM"
  }
]

====

System: A549
Test: Antiproliferative activity against human A549 cells
Assay type: functional, cell-based
pIC50: −log10 of the molar value.
Reported pIC50 is given for each of the following compounds.

[
  {
    "compound": "CCC(C)N1C(=O)C2(C(C#N)=C(N)Oc3c2c(=O)oc2ccccc32)c2ccccc21 (configuration not stated)",
    "pIC50": 4.47
  },
  {
    "compound": "N#CC1=C(N)Oc2c(c(=O)oc3ccccc23)C12C(=O)N(Cc1cccc(Br)c1)c1ccccc12 (configuration not stated)",
    "pIC50": 4.53
  }
]

====

System: B16-F10
Test: Anticancer activity against mouse B16-F10 cells incubated for 48 hrs by MTT assay
Type: functional, cell-based
Settings: B16-F10, 48 h

[
  {
    "compound": "COC1=CC2(C=C(C(=O)Oc3cccc(F)c3F)c3cc(OC)cc(OC)c32)C(OC)=CC1=O (centres undefined)",
    "tested system": "B16-F10",
    "IC50 / µM": 10.9
  },
  {
    "compound": "COC1=CC2(C=C(C(=O)Oc3c(F)cc(F)cc3F)c3cc(OC)cc(OC)c32)C(OC)=CC1=O (centres undefined)",
    "tested system": "B16-F10",
    "IC50 / µM": 9.63
  },
  {
    "compound": "COC1=CC2(C=C(C(=O)NNc3ccc(F)c(F)c3)c3cc(OC)cc(OC)c32)C(OC)=CC1=O (centres undefined)",
    "tested system": "B16-F10",
    "IC50 / µM": 20.9
  },
  {
    "compound": "COC1=CC2(C=C(C(=O)NNc3ccc(OC(F)(F)F)cc3)c3cc(OC)cc(OC)c32)C(OC)=CC1=O (centres undefined)",
    "tested system": "B16-F10",
    "IC50 / µM": 19.3
  }
]

====

System: MCF7
Assay: Cytotoxicity against human MCF7 cells assessed as reduction in cell growth
Type: functional, cell-based
pIC50: −log10 of the molar value.
measurement kind: pIC50

[
  {
    "compound": "CN1N=C(c2ccc(Cl)c(Cl)c2)C2C(CSC23CCCN3CCOCC(=O)NN)C1=O (configuration not stated)",
    "measurement kind": "pIC50",
    "observed result": 5.11
  },
  {
    "compound": "CN1C(=O)C2(SCC3C(=O)N(CC(=O)NN)N=C(c4ccc(Cl)c(Cl)c4)C32)c2ccccc21 (configuration not stated)",
    "measurement kind": "pIC50",
    "observed result": 5.09
  }
]

====

System: HCT-116
Assay: Cytotoxicity against human HCT-116 cells assessed a reduction in cell viability
Format: functional, cell-based
pIC50: −log10 of the molar value.

[
  {
    "smiles code": "CCOc1cccc2c1OCC1=CCC3(O[C@H]12)C(=O)c1ccccc1C3=O",
    "pIC50": 4.56
  }
]

====

Test system: MDA-MB-435
Test: Growth inhibition of human MDA-MB-435 cells by SRB assay
Type: functional
measurement kind: GI50 (µM)

[
  {
    "compound": "N#CC1=C(N)OC2=C(C(=O)c3ccccc32)C12C(=O)Nc1ccc(F)cc12 (stereo not given)",
    "result qualifier": ">",
    "observed result": 100
  },
  {
    "compound": "N#CC1=C(N)OC2=C(C(=O)c3ccccc32)C12C(=O)Nc1ccc(I)cc12 (stereo not given)",
    "result qualifier": ">",
    "observed result": 100
  },
  {
    "compound": "N#CC1=C(N)OC2=C(C(=O)C=C2)C12C(=O)Nc1ccc(Cl)cc12 (stereo not given)",
    "result qualifier": "=",
    "observed result": 29.9
  },
  {
    "compound": "N#CC1=C(N)OC2=C(C(=O)c3ccccc32)C12C(=O)Nc1ccc(Br)cc12 (stereo not given)",
    "result qualifier": "=",
    "observed result": 1.8
  },
  {
    "compound": "N#CC1=C(N)OC2=C(C(=O)c3ccccc32)C12C(=O)Nc1ccc(Cl)cc12 (stereo not given)",
    "result qualifier": "=",
    "observed result": 2.1
  }
]

====

System: HCT-116
Assay: Anticancer activity against human HCT-116 cells measured after 72 hrs by SRB assay
Format: functional, cell-based
Conditions: HCT-116, 72 h
pIC50: −log10 of the molar value.
measurement kind: pIC50

[
  {
    "smiles code": "CCNC(=O)[C@H]1[C@H](c2ccc([N+](=O)[O-])cc2)[C@@]2(C(=O)Cc3ccccc32)[C@H](CC(C)C)N1[C@H](c1ccccc1)[C@@H](O)c1ccccc1",
    "observed result": 5.41
  }
]

====

Test system: A549
Test: Cytotoxicity against human A549 cells assessed as inhibition of tumor cell proliferation incubated for 72 hrs by MTT assay
Format: functional, cell-based
Settings: A549, 72 h
pIC50: −log10 of the molar value.
Reported pIC50 is given for each of the following molecules.
measurement kind: pIC50

[
  {
    "molecule": "C[C@]12CC[C@H](O)CC1=CCC1C2CC[C@@]2(C)C1CC[C@@H]2C1=CC2(C(=O)Nc3ccc(Cl)cc32)C(C#N)=C(N)N1 (some centres undefined)",
    "result qualifier": "=",
    "observed result": 4.94
  },
  {
    "molecule": "C[C@]12CC[C@H](O)CC1=CCC1C2CC[C@@]2(C)C1CC[C@@H]2C1=CC2(C(=O)Nc3c(Cl)cccc32)C(C#N)=C(N)N1 (some centres undefined)",
    "result qualifier": "=",
    "observed result": 4.48
  },
  {
    "molecule": "C[C@]12CC[C@H](O)CC1=CCC1C2CC[C@@]2(C)C1CC[C@@H]2C1=CC2(C(=O)N(Cc3ccc(Cl)c(Cl)c3)c3ccccc32)C(C#N)=C(N)N1 (some centres undefined)",
    "result qualifier": "<",
    "observed result": 3.89
  },
  {
    "molecule": "C[C@]12CC[C@H](O)CC1=CCC1C2CC[C@@]2(C)C1CC[C@@H]2C1=CC2(C(=O)Nc3ccc(F)cc32)C(C#N)=C(N)N1 (some centres undefined)",
    "result qualifier": "=",
    "observed result": 4.67
  }
]
